For each entry below, report its inhibition value.
# test protocol: 384-well plate pilot, post-Golgi transport modulator project, inhibition of yeast transport mutant growth (AID 636); further: test concentration not given here
# measurement parameters: absorbance 615 nm, about 18 h, stronger effect = higher value
Express it in %; write the number only.

Exercise: State its inhibition for this molecule: O=C(Cn1cnc2c(nnn2-c2ccc(F)cc2)c1=O)NCc1ccco1
Solution: -0.39

Exercise: State its inhibition for this molecule: COc1ccc(-c2noc(CCC(=O)NCCCN3CCC(Cc4ccccc4)CC3)n2)cc1
Solution: 1.05

Exercise: State its inhibition for this molecule: CCCCn1cnc2c(c1=O)c1nc3ccccc3nc1n2Cc1ccc2c(c1)OCO2
Solution: -5.14

Exercise: State its inhibition for this molecule: Cc1[nH]nc2c1C(c1ccc(F)cc1)C1=C(CC(C)(C)CC1=O)N2 (stereo unspecified)
Solution: -5.14

Exercise: State its inhibition for this molecule: Cc1ccc(S(=O)(=O)NCC(c2cccnc2)N(C)C)cc1 (stereo unspecified)
Solution: -5.75

Exercise: State its inhibition for this molecule: CCOc1cccc(-n2nnnc2-c2ccc(OC)cc2)c1
Solution: -1.04

Exercise: State its inhibition for this molecule: OC1C=CSc2nc3ccccc3n21 (stereo unspecified)
Solution: -5.68

Exercise: State its inhibition for this molecule: O=C(Nc1cc(C(F)(F)F)ccc1Cl)c1cc(C2CC2)on1
Solution: -3.82

Exercise: State its inhibition for this molecule: Cn1c(=O)[nH]c(=O)c2c1nc(NCCCn1ccnc1)n2Cc1ccccc1
Solution: -1.47

Exercise: State its inhibition for this molecule: CCCS(=O)(=O)N1CCCC(C(=O)NC2CCCC(C)C2C)C1 (stereo unspecified)
Solution: -2.73

Exercise: State its inhibition for this molecule: Cc1nc2sc(C(c3cccc(F)c3)N3CCC(C)CC3)c(O)n2n1 (stereo unspecified)
Solution: -6.71
